tested on: ATP; assay: switch fluorescence ratio, 500 uM ATP over buffer (Cy3 cluster intensity, sum of 5 cycles each) (fold (ratio)); higher = stronger signal-on switching upon ATP binding; sequences stand for … in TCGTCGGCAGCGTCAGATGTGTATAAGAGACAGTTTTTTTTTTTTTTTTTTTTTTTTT…TC; settings: aptamer strand: ATP DNA aptamer (quencher-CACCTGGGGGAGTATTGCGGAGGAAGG + anchor), 100 nM annealed; ATP concentration: 500 uM;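 further: ATP exposure 15 min at 22 °C before imaging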
So I've got a bunch of sequences here, and I need their switch fluorescence ratio values.
Lab note: record the figure alone, no unit after it.

Determine from records and report switch fluorescence ratio for `TTGAAGGGTT`
0.998

Determine from records and report switch fluorescence ratio for `ATATGGCTTT`
1.02

Determine from records and report switch fluorescence ratio for `TAGGGGCCTG`
0.983

Determine from records and report switch fluorescence ratio for `TATGTGAGTA`
1.01

Determine from records and report switch fluorescence ratio for `ATTGTAGGGT`
0.972

Determine from records and report switch fluorescence ratio for `CAATGGGGGA`
1.01

Determine from records and report switch fluorescence ratio for `GCATCAGGGA`
1.02

Determine from records and report switch fluorescence ratio for `GTTATAATTG`
0.984

Determine from records and report switch fluorescence ratio for `TACGCTTCAT`
1.02

Determine from records and report switch fluorescence ratio for `TGAGTTGGAG`
0.988

Determine from records and report switch fluorescence ratio for `CGGACTGGGA`
1.01

###

So I've got a bunch of sequences here, and I need their switch fluorescence ratio values.
system: ATP; experiment: switch fluorescence ratio, 500 uM ATP over buffer (Cy3 cluster intensity, sum of 5 cycles each) (fold (ratio)); higher = stronger signal-on switching upon ATP binding; sequences stand for … in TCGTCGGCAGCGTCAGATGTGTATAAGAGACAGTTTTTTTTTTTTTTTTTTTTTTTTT…TC; conditions: aptamer strand: ATP DNA aptamer (quencher-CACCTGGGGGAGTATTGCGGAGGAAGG + anchor), 100 nM annealed; ATP concentration: 500 uM;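 further: ATP exposure 15 min at 22 °C before imaging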

Determine from records and report switch fluorescence ratio for `TACTGGGTCG`
1.01

Determine from records and report switch fluorescence ratio for `TAGGGCGGTT`
0.98

Determine from records and report switch fluorescence ratio for `AGACGGTCGG`
0.975

Determine from records and report switch fluorescence ratio for `TTTTTCTAGT`
1.01

Determine from records and report switch fluorescence ratio for `TATTAATATT`
1

Determine from records and report switch fluorescence ratio for `TTTTTTACAT`
1.01

Determine from records and report switch fluorescence ratio for `GGGGTCACGG`
1.01

Determine from records and report switch fluorescence ratio for `CTGGTCATGT`
0.995

###

So I've got a bunch of sequences here, and I need their switch fluorescence ratio values.
tested on: ATP; assay: switch fluorescence ratio, 500 uM ATP over buffer (Cy3 cluster intensity, sum of 5 cycles each) (fold (ratio)); higher = stronger signal-on switching upon ATP binding; sequences stand for … in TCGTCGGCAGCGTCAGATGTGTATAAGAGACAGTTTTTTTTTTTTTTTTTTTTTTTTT…TC; conditions: aptamer strand: ATP DNA aptamer (quencher-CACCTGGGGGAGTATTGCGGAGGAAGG + anchor), 100 nM annealed; ATP concentration: 500 uM;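 further: ATP exposure 15 min at 22 °C before imaging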

Report its switch fluorescence ratio with ATP as the test system: `GGCAATTATT`
1.02

Report its switch fluorescence ratio with ATP as the test system: `GAAGGAGCAA`
2.54

Report its switch fluorescence ratio with ATP as the test system: `TATCGGAAGG`
0.99

Report its switch fluorescence ratio with ATP as the test system: `TTCATTGGGG`
0.99

Report its switch fluorescence ratio with ATP as the test system: `GGGGGGAATT`
1.05

###

test system: ATP; assay: switch fluorescence ratio, 500 uM ATP over buffer (Cy3 cluster intensity, sum of 5 cycles each) (fold (ratio)); higher = stronger signal-on switching upon ATP binding; sequences stand for … in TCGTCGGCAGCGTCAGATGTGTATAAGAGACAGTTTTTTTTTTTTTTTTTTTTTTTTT…TC; conditions: aptamer strand: ATP DNA aptamer (quencher-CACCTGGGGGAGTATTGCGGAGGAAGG + anchor), 100 nM annealed; ATP concentration: 500 uM;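 further: ATP exposure 15 min at 22 °C before imaging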
ENDPOINT_LABEL: switch fluorescence ratio
Lab note: record the figure alone, no unit after it.

Report its switch fluorescence ratio with ATP as the test system: `ACCCATTGTA`
1.06

Report its switch fluorescence ratio with ATP as the test system: `GGGTGTGAAC`
0.986

Report its switch fluorescence ratio with ATP as the test system: `TAGACTATGG`
1.04

Report its switch fluorescence ratio with ATP as the test system: `TTTTTAATAT`
1.04

Report its switch fluorescence ratio with ATP as the test system: `TTTATGTAGG`
0.989

Report its switch fluorescence ratio with ATP as the test system: `CGGGGGTAGG`
1.03

Report its switch fluorescence ratio with ATP as the test system: `CCGGGGCTTT`
1.17

Report its switch fluorescence ratio with ATP as the test system: `CCATCATAGG`
1.01

###

tested on: ATP; assay: switch fluorescence ratio, 500 uM ATP over buffer (Cy3 cluster intensity, sum of 5 cycles each) (fold (ratio)); higher = stronger signal-on switching upon ATP binding; sequences stand for … in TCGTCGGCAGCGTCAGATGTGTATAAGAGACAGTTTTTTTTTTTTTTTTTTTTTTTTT…TC; conditions: aptamer strand: ATP DNA aptamer (quencher-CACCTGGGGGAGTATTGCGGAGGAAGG + anchor), 100 nM annealed; ATP concentration: 500 uM;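 further: ATP exposure 15 min at 22 °C before imaging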
ENDPOINT_LABEL: switch fluorescence ratio
Lab note: record the figure alone, no unit after it.

Determine from records and report switch fluorescence ratio for `CGGTTGACTT`
0.992

Determine from records and report switch fluorescence ratio for `GAGGTGAAAT`
1.01

Determine from records and report switch fluorescence ratio for `GAAATCGGGG`
1.05

Determine from records and report switch fluorescence ratio for `GTGCGATGTA`
1.02

Determine from records and report switch fluorescence ratio for `TGAATTTATT`
1

Determine from records and report switch fluorescence ratio for `ATTAATTCCG`
1.02

###

test system: ATP; experiment: switch fluorescence ratio, 500 uM ATP over buffer (Cy3 cluster intensity, sum of 5 cycles each) (fold (ratio)); higher = stronger signal-on switching upon ATP binding; sequences stand for … in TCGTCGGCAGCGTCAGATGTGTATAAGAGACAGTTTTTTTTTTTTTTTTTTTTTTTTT…TC; settings: aptamer strand: ATP DNA aptamer (quencher-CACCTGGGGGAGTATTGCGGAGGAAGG + anchor), 100 nM annealed; ATP concentration: 500 uM;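 further: ATP exposure 15 min at 22 °C before imaging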
So I've got a bunch of sequences here, and I need their switch fluorescence ratio values.
Lab note: record the figure alone, no unit after it.

Report its switch fluorescence ratio with ATP as the test system: `TGATGTTGT`
1

Report its switch fluorescence ratio with ATP as the test system: `GGGAATCTGC`
1.01

Report its switch fluorescence ratio with ATP as the test system: `TGTTTATGAC`
0.985

The measured values listed here are drawn from the supplement of paper PMC10126150.
